Overview of recorded Emax for various compounds
- target_under_test: human muscarinic M4 receptor (Homo sapiens, UniProt P08173)
- Construct: expressed in transfected cells
- Sequence (P08173 1-479): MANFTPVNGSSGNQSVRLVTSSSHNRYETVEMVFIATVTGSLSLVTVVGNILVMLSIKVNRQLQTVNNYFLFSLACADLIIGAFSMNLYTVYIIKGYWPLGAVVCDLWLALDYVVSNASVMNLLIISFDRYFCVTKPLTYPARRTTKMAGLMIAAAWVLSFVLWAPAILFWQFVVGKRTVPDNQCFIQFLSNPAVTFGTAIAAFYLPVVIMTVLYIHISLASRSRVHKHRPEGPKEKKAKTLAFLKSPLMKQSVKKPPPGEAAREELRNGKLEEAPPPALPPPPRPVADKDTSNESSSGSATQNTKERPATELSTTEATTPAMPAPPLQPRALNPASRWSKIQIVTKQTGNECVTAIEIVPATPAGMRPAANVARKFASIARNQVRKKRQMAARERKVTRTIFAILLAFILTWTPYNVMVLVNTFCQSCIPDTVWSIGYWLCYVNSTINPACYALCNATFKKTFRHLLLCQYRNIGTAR
- method_summary: Alphascreen Surefire phospho-ERK1/2 functional assay, M4
- Assay type: cell-based
- measurement_conditions: CHO, read-out: M4 % Emax cf. ACh, CHO cells stably expressing human M4; Emax relative to ACh

# compound, Emax (%)
rows = [
    ("CCOC(=O)N1CCCN(C2CCC(C#N)(c3ccc(OCC)cn3)CC2)CC1 (single isomer, unassigned) [3-20 Isomer 2]", 7),
    ("CCOC(=O)N[C@H]1CCN(C2CCC(C#N)(c3cccc(OC)c3)CC2)C1 (single isomer, unassigned) [1-11 Isomer 2]", 9),
    ("CCOC(=O)N[C@H]1CCN(C2CCC(C#N)(c3ccc(F)cc3)CC2)C1 (single isomer, unassigned) [1-4 Isomer 2]", 7),
]
